# procedure.details: Binding affinity to 2-AP labeled 16s rRNA (unknown origin) having pairing of G1405-C1496 by fluorescence assay
# condition: read-out: Kd
Measured Kd of individual entries
readout.kind: Kd (µM)

smiles.structure: CCCCCCCCCCCCCCCC(=O)NC[C@H]1O[C@@H](O[C@@H]2[C@@H](O)[C@H](N)C[C@H](N)[C@H]2O[C@H]2O[C@H](CN)[C@@H](O)[C@H](O)[C@H]2N)[C@H](O)[C@@H]1O[C@@H]1O[C@H](CN)[C@H](O)[C@@H](O)[C@@H]1N
test.value: 1.27

smiles.structure: NC[C@H]1O[C@@H](O[C@@H]2[C@@H](O)[C@H](N)C[C@H](N)[C@H]2O[C@H]2O[C@H](CN)[C@@H](O)[C@H](O)[C@H]2N)[C@H](O)[C@@H](O)[C@@H]1N
test.value: 3.72
